src = ChEMBL document CHEMBL1145994

molecular target: C-C chemokine receptor type 2 (Homo sapiens, UniProt P41597, E291Q); assay: Binding affinity of compound (10 uM) towards E291Q receptor variant (mutant CCR2 receptor) using radioligand [125I]MCP-1 in HEK 293 cells
Sequence (P41597 whole entry E291Q): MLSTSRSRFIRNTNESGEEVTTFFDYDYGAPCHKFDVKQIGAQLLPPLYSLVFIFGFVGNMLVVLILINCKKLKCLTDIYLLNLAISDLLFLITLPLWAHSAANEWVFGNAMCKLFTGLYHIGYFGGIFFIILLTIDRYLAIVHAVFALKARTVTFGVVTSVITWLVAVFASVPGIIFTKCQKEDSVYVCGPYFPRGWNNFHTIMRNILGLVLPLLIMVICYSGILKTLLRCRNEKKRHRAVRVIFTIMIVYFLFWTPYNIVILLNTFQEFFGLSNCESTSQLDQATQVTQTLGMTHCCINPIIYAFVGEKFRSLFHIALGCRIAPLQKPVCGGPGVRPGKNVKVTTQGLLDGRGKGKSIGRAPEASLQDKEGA
pKi: −log10 of the molar value.
Recorded metric: pKi

Chemical string | Target desc | Recorded metric | Assay result
Cc1ccc(-c2ccc3c(c2)C=C(C(=O)Nc2ccc(CN(C)C4CCOCC4)cc2)CCC3)cc1 | C-C chemokine receptor type 2 (Homo sapiens, UniProt P41597, E291Q) | pKi | 5.69
Cc1ccc(-c2ccc3c(c2)C=C(C(=O)Nc2ccc(C[N+](C)(C)C4CCOCC4)cc2)CCC3)cc1.[Cl-] | C-C chemokine receptor type 2 (Homo sapiens, UniProt P41597, E291Q) | pKi | 6.83

* * *

target: C-C chemokine receptor type 2 (Homo sapiens, UniProt P41597, Y49F); assay: Binding affinity of compound (10 uM) towards Y49F receptor variant (mutant CCR2 receptor) using radioligand [125I]MCP-1 in HEK 293 cells
Sequence (P41597 whole entry Y49F): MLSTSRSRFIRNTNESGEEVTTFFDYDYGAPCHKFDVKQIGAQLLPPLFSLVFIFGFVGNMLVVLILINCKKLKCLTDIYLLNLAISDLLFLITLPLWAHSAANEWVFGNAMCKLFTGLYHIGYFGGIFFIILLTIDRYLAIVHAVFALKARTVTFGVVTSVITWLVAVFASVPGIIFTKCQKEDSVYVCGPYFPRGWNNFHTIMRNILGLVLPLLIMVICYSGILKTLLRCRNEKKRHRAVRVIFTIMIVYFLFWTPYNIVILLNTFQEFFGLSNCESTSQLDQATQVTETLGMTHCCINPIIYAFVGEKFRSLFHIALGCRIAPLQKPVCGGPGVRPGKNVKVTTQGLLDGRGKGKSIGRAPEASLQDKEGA

Chemical string | Ki, nM
O=C(/C=C/c1ccc(Cl)c(Cl)c1)NCCCCCN1CCC(c2c[nH]c3ccc(O)cc23)CC1 | 16.6
Cc1ccc(-c2ccc3c(c2)C=C(C(=O)Nc2ccc(C[N+](C)(C)C4CCOCC4)cc2)CCC3)cc1.[Cl-] | 27.5
Cc1ccc(-c2ccc3c(c2)C=C(C(=O)Nc2ccc(CN(C)C4CCOCC4)cc2)CCC3)cc1 | 151
Cc1ccc(CN2CC[C@@H](NC(=O)CNC(=O)c3cccc(C(F)(F)F)c3)C2)c(C)c1 | 316

* * *

biological target: C-C chemokine receptor type 2 (Homo sapiens, UniProt P41597, H121F); test: Binding affinity of compound (10 uM) towards H121F receptor variant (mutant CCR2 receptor) using radioligand [125I]MCP-1 in HEK 293 cells
Sequence (P41597 whole entry H121F): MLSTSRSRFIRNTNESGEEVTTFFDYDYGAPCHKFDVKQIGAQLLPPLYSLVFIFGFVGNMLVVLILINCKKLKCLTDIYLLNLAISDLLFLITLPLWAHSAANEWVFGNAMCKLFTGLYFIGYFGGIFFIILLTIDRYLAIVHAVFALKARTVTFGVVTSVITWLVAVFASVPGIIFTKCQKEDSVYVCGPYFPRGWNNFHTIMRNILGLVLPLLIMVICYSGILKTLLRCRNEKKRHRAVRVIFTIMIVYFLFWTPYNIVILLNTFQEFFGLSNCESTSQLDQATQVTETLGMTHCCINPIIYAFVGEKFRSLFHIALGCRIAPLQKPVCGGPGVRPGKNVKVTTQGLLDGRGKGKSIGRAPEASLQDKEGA
pKi: −log10 of the molar value.

Chemical string | pKi
O=C(/C=C/c1ccc(Cl)c(Cl)c1)NCCCCCN1CCC(c2c[nH]c3ccc(O)cc23)CC1 | 6.78
Cc1ccc(-c2ccc3c(c2)C=C(C(=O)Nc2ccc(C[N+](C)(C)C4CCOCC4)cc2)CCC3)cc1.[Cl-] | 8.58
Cc1ccc(CN2CC[C@@H](NC(=O)CNC(=O)c3cccc(C(F)(F)F)c3)C2)c(C)c1 | 6.18
Cc1ccc(-c2ccc3c(c2)C=C(C(=O)Nc2ccc(CN(C)C4CCOCC4)cc2)CCC3)cc1 | 7.62

* * *

pKi values for the compounds below.
biological target: C-C chemokine receptor type 2 (Homo sapiens, UniProt P41597, T292A); experiment: Binding affinity of compound (10 uM) towards T292A receptor variant (mutant CCR2 receptor) using radioligand [125I]MCP-1 in HEK 293 cells
Sequence (P41597 whole entry T292A): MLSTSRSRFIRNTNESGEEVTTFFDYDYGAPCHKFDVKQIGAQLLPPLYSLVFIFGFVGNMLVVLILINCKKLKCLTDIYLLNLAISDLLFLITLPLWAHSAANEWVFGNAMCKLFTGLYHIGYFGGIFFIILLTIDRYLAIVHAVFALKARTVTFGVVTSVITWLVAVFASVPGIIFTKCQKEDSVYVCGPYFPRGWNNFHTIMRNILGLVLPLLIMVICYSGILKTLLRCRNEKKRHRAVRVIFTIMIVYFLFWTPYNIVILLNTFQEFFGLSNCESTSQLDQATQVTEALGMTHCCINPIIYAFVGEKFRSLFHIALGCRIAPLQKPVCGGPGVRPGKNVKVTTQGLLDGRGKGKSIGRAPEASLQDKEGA
pKi: −log10 of the molar value.

Chemical string | pKi
Cc1ccc(-c2ccc3c(c2)C=C(C(=O)Nc2ccc(C[N+](C)(C)C4CCOCC4)cc2)CCC3)cc1.[Cl-] | 7.54
O=C(/C=C/c1ccc(Cl)c(Cl)c1)NCCCCCN1CCC(c2c[nH]c3ccc(O)cc23)CC1 | 6.14
Cc1ccc(-c2ccc3c(c2)C=C(C(=O)Nc2ccc(CN(C)C4CCOCC4)cc2)CCC3)cc1 | 6.12
Cc1ccc(CN2CC[C@@H](NC(=O)CNC(=O)c3cccc(C(F)(F)F)c3)C2)c(C)c1 | 5.11

* * *

target: C-C chemokine receptor type 2 (Homo sapiens, UniProt P41597, H121A/T292A); assay: Binding affinity of compound (10 uM) towards H121A/T292A receptor variant (double mutant CCR2 receptor) using radioligand [125I]MCP-1 in HEK 293 cells
Sequence (P41597 whole entry H121A/T292A): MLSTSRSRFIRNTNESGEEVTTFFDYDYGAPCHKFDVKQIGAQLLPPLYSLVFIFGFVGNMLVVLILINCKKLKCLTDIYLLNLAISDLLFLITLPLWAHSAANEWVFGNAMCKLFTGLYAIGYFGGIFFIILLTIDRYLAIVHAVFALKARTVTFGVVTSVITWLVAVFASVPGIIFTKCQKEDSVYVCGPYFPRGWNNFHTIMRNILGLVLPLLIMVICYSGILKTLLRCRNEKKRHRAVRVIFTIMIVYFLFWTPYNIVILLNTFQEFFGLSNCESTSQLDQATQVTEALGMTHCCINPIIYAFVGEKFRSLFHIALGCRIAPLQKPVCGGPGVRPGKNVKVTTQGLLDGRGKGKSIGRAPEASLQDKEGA
Recorded metric: Ki (µM)

Chemical string | Recorded metric | Assay result
O=C(/C=C/c1ccc(Cl)c(Cl)c1)NCCCCCN1CCC(c2c[nH]c3ccc(O)cc23)CC1 | Ki | 2.09
Cc1ccc(-c2ccc3c(c2)C=C(C(=O)Nc2ccc(CN(C)C4CCOCC4)cc2)CCC3)cc1 | Ki | 4.79
Cc1ccc(-c2ccc3c(c2)C=C(C(=O)Nc2ccc(C[N+](C)(C)C4CCOCC4)cc2)CCC3)cc1.[Cl-] | Ki | 0.182

* * *

molecular target: C-C chemokine receptor type 2 (Homo sapiens, UniProt P41597); test: Inhibition of chemotaxis by C-C chemokine receptor type 2 antagonist in human monocytes was measured in the presence 1 nM MCP-1; type: functional, cell-based
Sequence (P41597 whole entry, looked up): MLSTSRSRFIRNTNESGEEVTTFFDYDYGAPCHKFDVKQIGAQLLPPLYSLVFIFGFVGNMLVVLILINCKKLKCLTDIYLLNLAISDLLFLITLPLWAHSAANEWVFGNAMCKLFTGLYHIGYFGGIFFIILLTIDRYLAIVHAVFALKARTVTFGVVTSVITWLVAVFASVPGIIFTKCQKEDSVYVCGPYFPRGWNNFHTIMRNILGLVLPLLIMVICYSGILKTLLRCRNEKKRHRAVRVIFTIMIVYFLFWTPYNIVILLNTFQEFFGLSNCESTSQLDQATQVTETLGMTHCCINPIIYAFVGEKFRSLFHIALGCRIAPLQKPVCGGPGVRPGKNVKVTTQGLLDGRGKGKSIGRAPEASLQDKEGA

Chemical string | pKb
O=C(/C=C/c1ccc(Cl)c(Cl)c1)NCCCCCN1CCC(c2c[nH]c3ccc(O)cc23)CC1 | 7.71
Cc1ccc(CN2CC[C@@H](NC(=O)CNC(=O)c3cccc(C(F)(F)F)c3)C2)c(C)c1 | 6.4
Cc1ccc(-c2ccc3c(c2)C=C(C(=O)Nc2ccc(CN(C)C4CCOCC4)cc2)CCC3)cc1 | 8.63
Cc1ccc2c(c1)C1(CCN(CCc3nc(-c4ccccc4)oc3C)CC1)OC(=O)N2 | 7.57
Cc1ccc(-c2ccc3c(c2)C=C(C(=O)Nc2ccc(C[N+](C)(C)C4CCOCC4)cc2)CCC3)cc1.[Cl-] | 9.53

* * *

target: C-C chemokine receptor type 2 (Homo sapiens, UniProt P41597, H121A); assay: Binding affinity of compound (10 uM) towards H121A receptor variant (mutant CCR2 receptor) using radioligand [125I]MCP-1 in HEK 293 cells
Sequence (P41597 whole entry H121A): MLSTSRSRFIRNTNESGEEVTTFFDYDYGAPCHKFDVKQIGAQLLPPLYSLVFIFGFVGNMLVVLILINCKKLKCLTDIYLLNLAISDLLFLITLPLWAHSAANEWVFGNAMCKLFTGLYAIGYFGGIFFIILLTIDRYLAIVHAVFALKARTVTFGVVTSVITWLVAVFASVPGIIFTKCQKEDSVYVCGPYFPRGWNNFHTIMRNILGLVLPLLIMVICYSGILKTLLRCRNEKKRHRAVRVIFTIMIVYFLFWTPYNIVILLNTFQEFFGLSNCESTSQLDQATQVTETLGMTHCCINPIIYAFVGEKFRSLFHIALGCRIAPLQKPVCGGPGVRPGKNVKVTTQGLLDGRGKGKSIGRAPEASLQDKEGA

Chemical string | Ki / nM
Cc1ccc(-c2ccc3c(c2)C=C(C(=O)Nc2ccc(C[N+](C)(C)C4CCOCC4)cc2)CCC3)cc1.[Cl-] | 17.8
Cc1ccc(-c2ccc3c(c2)C=C(C(=O)Nc2ccc(CN(C)C4CCOCC4)cc2)CCC3)cc1 | 302
Cc1ccc(CN2CC[C@@H](NC(=O)CNC(=O)c3cccc(C(F)(F)F)c3)C2)c(C)c1 | 2570
O=C(/C=C/c1ccc(Cl)c(Cl)c1)NCCCCCN1CCC(c2c[nH]c3ccc(O)cc23)CC1 | 2510

* * *

target: UniProt:P41597; assay: Binding affinity of compound (10 uM) towards WT receptor variant (mutant C-C chemokine receptor type 2) using radioligand [125I]MCP-1 in HEK 293 cells; format: cell-based; details: hek293
Sequence (P41597 whole entry, looked up, change not shown): as the sequence (P41597 whole entry, looked up) above
Listed next: entries and their corresponding Log Ki.
Recorded metric: Log Ki

Chemical string | Assay result
Cc1ccc(-c2ccc3c(c2)C=C(C(=O)Nc2ccc(C[N+](C)(C)C4CCOCC4)cc2)CCC3)cc1.[Cl-] | -8.16
Cc1ccc(-c2ccc3c(c2)C=C(C(=O)Nc2ccc(CN(C)C4CCOCC4)cc2)CCC3)cc1 | -7.16
O=C(/C=C/c1ccc(Cl)c(Cl)c1)NCCCCCN1CCC(c2c[nH]c3ccc(O)cc23)CC1 | -7
Cc1ccc(CN2CC[C@@H](NC(=O)CNC(=O)c3cccc(C(F)(F)F)c3)C2)c(C)c1 | -6.47

* * *

# maps each entry to its Ki
molecular target: C-C chemokine receptor type 2 (Homo sapiens); assay: Binding displacement of [125I]MCP-1 (0.14 nM) was measured on CHO cell membranes expressing human CCR2 (C-C chemokine receptor type 2)
Sequence (P41597 whole entry): as the sequence (P41597 whole entry, looked up) above

Chemical string | Readout units | Ki
Cc1ccc(-c2ccc3c(c2)C=C(C(=O)Nc2ccc(C[N+](C)(C)C4CCOCC4)cc2)CCC3)cc1.[Cl-] | nM | 4.17
Cc1ccc(-c2ccc3c(c2)C=C(C(=O)Nc2ccc(CN(C)C4CCOCC4)cc2)CCC3)cc1 | nM | 28.8
Cc1ccc(CN2CC[C@@H](NC(=O)CNC(=O)c3cccc(C(F)(F)F)c3)C2)c(C)c1 | nM | 288

* * *

Known Ki of a selection of molecules
target: UniProt:P41597; assay: Binding affinity of compound (10 uM) towards […] receptor variant (mutant CCR2 receptor) using radioligand [125I]MCP-1 in HEK 293 cells; assay type: cell-based, HEK293
Recorded metric: Ki (nM)

Chemical string | Target desc | Recorded metric | Assay result
Cc1ccc(-c2ccc3c(c2)C=C(C(=O)Nc2ccc(CN(C)C4CCOCC4)cc2)CCC3)cc1 | UniProt:P41597 | Ki | 2570
Cc1ccc(CN2CC[C@@H](NC(=O)CNC(=O)c3cccc(C(F)(F)F)c3)C2)c(C)c1 | UniProt:P41597 | Ki | 1820
O=C(/C=C/c1ccc(Cl)c(Cl)c1)NCCCCCN1CCC(c2c[nH]c3ccc(O)cc23)CC1 | UniProt:P41597 | Ki | 562
Cc1ccc(-c2ccc3c(c2)C=C(C(=O)Nc2ccc(C[N+](C)(C)C4CCOCC4)cc2)CCC3)cc1.[Cl-] | UniProt:P41597 | Ki | 105

* * *

target: C-C chemokine receptor type 2 (Homo sapiens, UniProt P41597, Q288A); test: Binding affinity of compound (10 uM) towards Q288A receptor variant (mutant CCR2 receptor) using radioligand [125I]MCP-1 in HEK 293 cells
Sequence (P41597 whole entry Q288A): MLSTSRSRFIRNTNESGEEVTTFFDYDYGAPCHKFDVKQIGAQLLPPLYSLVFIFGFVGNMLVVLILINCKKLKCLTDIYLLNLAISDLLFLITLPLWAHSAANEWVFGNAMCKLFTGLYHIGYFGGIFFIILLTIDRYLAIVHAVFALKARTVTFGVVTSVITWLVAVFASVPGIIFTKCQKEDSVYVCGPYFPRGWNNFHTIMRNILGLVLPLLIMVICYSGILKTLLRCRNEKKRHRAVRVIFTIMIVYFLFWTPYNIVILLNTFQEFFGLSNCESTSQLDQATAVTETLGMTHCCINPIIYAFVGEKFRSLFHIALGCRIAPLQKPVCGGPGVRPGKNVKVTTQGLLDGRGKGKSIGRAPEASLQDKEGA
Collected Ki values appear next to each entry.

Chemical string | Readout units | Ki
O=C(/C=C/c1ccc(Cl)c(Cl)c1)NCCCCCN1CCC(c2c[nH]c3ccc(O)cc23)CC1 | nM | 170
Cc1ccc(-c2ccc3c(c2)C=C(C(=O)Nc2ccc(C[N+](C)(C)C4CCOCC4)cc2)CCC3)cc1.[Cl-] | nM | 9.77
Cc1ccc(CN2CC[C@@H](NC(=O)CNC(=O)c3cccc(C(F)(F)F)c3)C2)c(C)c1 | nM | 316
Cc1ccc(-c2ccc3c(c2)C=C(C(=O)Nc2ccc(CN(C)C4CCOCC4)cc2)CCC3)cc1 | nM | 229
